Tested on: A431
Experiment: LBPA endosome anti-LBPA integrated intensity (sum per cell), Z-score; higher = more LBPA staining
Settings: compound concentration in added solution (µM; 5 µl added to 20 µl cells): 10; 18 h
Counter-ions that a name gives are not always drawn.
Recorded LBPA endosome anti-LBPA integrated intensity (z-score) by entry
Write the value as a bare number.

Here's what some known entries look like.
MOLECULE	OBSERVED
CC(C)(Oc1ccc(C2CC2(Cl)Cl)cc1)C(=O)O (stereo not given) [Ciprofibrate]	-0.486
Cc1cn([C@H]2C[C@H](N=[N+]=[N-])[C@@H](CO)O2)c(=O)[nH]c1=O	-0.815
Cn1c(=O)c2c(ncn2C)n(C)c1=O	-0.331
Nc1nc(O)c2ncn(CCC(CO)CO)c2n1	-0.596

// query Give its LBPA endosome anti-LBPA integrated intensity (z-score) value. Item: CC(=O)OCC(=O)NCCCOc1cccc(CN2CCCCC2)c1 [Roxatidine Acetate HCl]
// result -0.585

###

Test system: A431
Assay: filipin (cholesterol) integrated intensity within LBPA endosomes, Z-score; higher = more cholesterol in LBPA endosomes
Conditions: compound concentration in added solution (µM; 5 µl added to 20 µl cells): 10; 18 h
Structures can show the parent of a compound that is named as a salt.
Definition: the class of an entry is the range in low (below -0.5), middle (-0.5 to below -0.3), high (-0.3 or more) that contains its filipin (z-score).

Answered examples (8):
COMPOUND	SUBJECT OF TEST	LABEL CLASS
N#Cc1ccc(C2CCCc3cncn32)cc1 (centres undefined) [Fadrozole hydrochloride]	A431	low
C#Cc1cccc(Nc2ncnc3cc(OCCOC)c(OCCOC)cc23)c1	A431	high
CC(C)NCC(O)COc1ccc(COCCOC(C)C)cc1 (centres undefined) [Bisoprolol fumarate]	A431	high
COc1ccc2cc([C@@H](C)C(=O)O)ccc2c1 [(R) -Naproxen sodium salt]	A431	low
CCOC(=O)C(C)(C)Oc1ccc(Cl)cc1 [Clofibrate]	A431	middle
CC[N+](C)(CC)CCOC(=O)C1c2ccccc2Oc2ccccc21 [Methantheline bromide]	A431	middle
O=C1C(O)=C([C@H]2CC[C@H](c3ccc(Cl)cc3)CC2)C(=O)c2ccccc21	A431	low
CC(C(=O)O)c1ccc(C(=O)c2cccs2)cc1 (centres undefined)	A431	high

// query Which filipin (z-score) category applies to CC(C)NCC(O)c1ccc(NS(C)(=O)=O)cc1 (centres undefined) [Sotalol hydrochloride] here?
// result high

// query Item: C[C@@H]1C[C@H]2[C@@H]3C[C@H](F)C4=CC(=O)C=C[C@]4(C)[C@@]3(Cl)[C@@H](O)C[C@]2(C)[C@H]1C(=O)COC(=O)C(C)(C)C [Clocortolone pivalate]
// result high

// query Item: `O=C1NCN(c2ccccc2)C12CCN(CCCC(c1ccc(F)cc1)c1ccc(F)cc1)CC2`
// result high

###

Test system: HeLa MZ
Assay: whole-cell filipin (free cholesterol) integrated intensity, Z-score; higher = more cholesterol staining
Settings: compound concentration in added solution (µM; 5 µl added to 20 µl cells): 10; 18 h
Structures can show the parent of a compound that is named as a salt.
READOUT KIND: whole-cell filipin (z-score)
Write the value as a bare number.

Here's what some known entries look like.
MOLECULE	READOUT KIND	OBSERVED
C[C@H]1C[C@H]2[C@@H]3CCC4=CC(=O)C=C[C@]4(C)[C@@]3(F)[C@@H](O)C[C@]2(C)[C@@]1(O)C(=O)CO [Betamethasone]	whole-cell filipin (z-score)	-0.354
O=C(O)c1cn(-c2ccc(F)cc2)c2cc(N3CCNCC3)c(F)cc2c1=O [Sarafloxacin]	whole-cell filipin (z-score)	-0.426

// query Give its whole-cell filipin (z-score) value. Item: C[N+]1(C)CCC(=C(c2ccccc2)c2ccccc2)CC1 [Diphemanil methylsulfate]
// result -0.964

// query Item: CNC(=C[N+](=O)[O-])NCCSCc1csc(CN(C)C)n1 [Nizatidine]
// result -0.639

// query Item: CN(C)[C@@H]1C(O)=C(C(N)=O)C(=O)[C@@]2(O)C(O)=C3C(=O)c4c(O)cccc4[C@@](C)(O)[C@H]3C[C@@H]12 [Tetracycline hydrochloride]
// result -0.867

// query Item: CCn1nc(C(=O)O)c(=O)c2cc3c(cc21)OCO3 [Cinoxacin]
// result -0.0614

// query Item: CC(C)(C)NCC(O)COc1cccc2c1CC(O)C(O)C2 (configuration not stated) [Nadolol]
// result 0.44

###

Test system: HeLa MZ
Assay: filipin (cholesterol) integrated intensity within LBPA endosomes, Z-score; higher = more cholesterol in LBPA endosomes
Conditions: compound concentration in added solution (µM; 5 µl added to 20 µl cells): 10; 18 h
Structures can show the parent of a compound that is named as a salt.
READOUT KIND: filipin (z-score)
Write the value as a bare number.

Here's what some known entries look like.
MOLECULE	filipin (z-score)
CCCCCN(CCCCC)C(=O)C(CCC(=O)O)NC(=O)c1ccc(Cl)c(Cl)c1 (stereo not drawn) [Lorglumide sodium salt]	-0.502
S=c1[nH]cnc2nc[nH]c12	-0.984
CCn1cc(C(=O)O)c(=O)c2cc(F)c(N3CCNCC3)cc21	-0.612
COC(=O)C1=C(C)NC(C)=C(C(=O)OC)C1c1ccccc1[N+](=O)[O-]	-0.614
CC(C)/N=c1\cc2n(-c3ccc(Cl)cc3)c3ccccc3nc-2cc1Nc1ccc(Cl)cc1	-0.0158

// query Give its filipin (z-score) value. Item: `CC(C)CC(=O)N[C@H](C(=O)N[C@H](C(=O)N[C@@H](CC(C)C)[C@@H](O)CC(=O)N[C@@H](C)C(=O)N[C@@H](CC(C)C)[C@@H](O)CC(=O)O)C(C)C)C(C)C`
// result -0.589

// query Item: COc1ccc2c(c1)N(C[C@H](C)CN(C)C)c1ccccc1S2 [Methotrimeprazine maleat salt]
// result 1.55

// query Item: `CO[C@H]1/C=C/O[C@@]2(C)Oc3c(C)c(O)c4c(O)c(c(/C=N/N5CCN(C6CCCC6)CC5)c(O)c4c3C2=O)NC(=O)/C(C)=C\C=C\[C@H](C)[C@H](O)[C@@H](C)[C@@H](O)[C@@H](C)[C@H](OC(C)=O)[C@@H]1C`
// result -0.486

// query Item: COC(=O)C1=C(C#N)NC(C)=C(C(=O)OC(C)C)C1c1cccc([N+](=O)[O-])c1 (stereo not drawn)
// result -0.158

// query Item: `Cc1noc(NS(=O)(=O)c2ccc(N)cc2)c1C`
// result -0.486

###

Tested on: HeLa MZ
Test: filipin (cholesterol) integrated intensity within LBPA endosomes, Z-score; higher = more cholesterol in LBPA endosomes
Conditions: compound concentration in added solution (µM; 5 µl added to 20 µl cells): 10; 18 h
Structures can show the parent of a compound that is named as a salt.
Decision: filipin (z-score) >= -0.2 yields true, all other cases yield false.

MOLECULE	LABEL CLASS
O=C(O)Cc1ccc(-c2ccccc2)cc1	false

// query // inclusive: filipin (z-score) at least -0.2? input: CCCN(CCC)CCc1cccc2c1CC(=O)N2 [Ropinirole HCl]
// result true

// query Item: O=C(c1ccc(OCCN2CCCCC2)cc1)c1c(-c2ccc(O)cc2)sc2cc(O)ccc12 [Raloxifene hydrochloride]
// result true

// query Item: `CC(C)C(=O)c1c(C(C)C)nn2ccccc12`
// result false

// query Item: `COc1ccc(C(Cl)=C(c2ccc(OC)cc2)c2ccc(OC)cc2)cc1`
// result true

###

System: A431
Assay: filipin (cholesterol) integrated intensity within LBPA endosomes, Z-score; higher = more cholesterol in LBPA endosomes
Settings: compound concentration in added solution (µM; 5 µl added to 20 µl cells): 10; 18 h
Counter-ions that a name gives are not always drawn.
Decision: filipin (z-score) >= -0.5 yields True, all other cases yield False.

Answered examples (3):
COMPOUND	LABEL CLASS
CS(=O)(=O)c1ccc([C@@H](O)[C@@H](CF)NC(=O)C(Cl)Cl)cc1 [Florfenicol]	False
CC(Cc1cccc(C(F)(F)F)c1)NCCOC(=O)c1ccccc1 (stereo not given) [Benfluorex hydrochloride]	True
NC(=O)c1cnccn1 [Pyrazinamide]	False

// query // inclusive: filipin (z-score) at least -0.5? input: CN1CCN2c3ccccc3Cc3ccccc3C2C1 (stereo not given) [Mianserine hydrochloride]
// result True

// query Item: CCN(CC)C(=O)/C(C#N)=C/c1cc(O)c(O)c([N+](=O)[O-])c1 [Entacapone]
// result True

###

Test system: HeLa MZ
Assay: whole-cell filipin (free cholesterol) integrated intensity, Z-score; higher = more cholesterol staining
Conditions: compound concentration in added solution (µM; 5 µl added to 20 µl cells): 10; 18 h
Where a name gives a salt, the structure may show the parent alone.
READOUT KIND: whole-cell filipin (z-score)

Here's what some known entries look like.
COMPOUND	OBSERVED
CCN(CC)CCNC(=O)c1ccc(N)cc1 [Procainamide hydrochloride]	0.713
C#C[C@]1(O)CC[C@H]2[C@@H]3CCC4=Cc5oncc5C[C@]4(C)[C@H]3CC[C@@]21C [Danazol]	-0.566
Cn1nnc2c(C(N)=O)ncn2c1=O [Temozolomide]	0.0676
CN1CCC(OC(c2ccccc2)c2ccccc2)CC1 [Diphenylpyraline hydrochloride]	0.448
CN1CCCN=C1/C=C/c1cccc(O)c1 [Oxantel pamoate]	-0.729

// query Give its whole-cell filipin (z-score) value. Item: NC(=O)c1cc[n+](CC2=C(C(=O)[O-])N3C(=O)[C@@H](NC(=O)[C@@H](c4ccccc4)S(=O)(=O)O)[C@H]3SC2)cc1 [Cefsulodin sodium salt]
// result -0.0382

// query Item: `c1ccc2c(c1)CCCc1cc(NCCN3CCOCC3)nnc1-2`
// result -0.162

// query Item: Cc1ccsc1/C=C/C1=NCCCN1C [Morantel tartrate]
// result -0.906

// query Item: C[C@H]1NC(=O)NC1=O [Methylhydantoin-5-(D)]
// result -0.267

// query Item: CCN[C@H]1CN(CCCOC)S(=O)(=O)c2sc(S(N)(=O)=O)cc21 [Brinzolamide]
// result -0.378

// query Item: O=c1oc2ccccc2c(O)c1Cc1c(O)c2ccccc2oc1=O [Dicumarol]
// result -0.48
